Values from patent US20100279930A1

# TESTED_SYSTEM: human Y4 receptor (human, UniProt P50391 1-375)
# Sequence (P50391 whole entry): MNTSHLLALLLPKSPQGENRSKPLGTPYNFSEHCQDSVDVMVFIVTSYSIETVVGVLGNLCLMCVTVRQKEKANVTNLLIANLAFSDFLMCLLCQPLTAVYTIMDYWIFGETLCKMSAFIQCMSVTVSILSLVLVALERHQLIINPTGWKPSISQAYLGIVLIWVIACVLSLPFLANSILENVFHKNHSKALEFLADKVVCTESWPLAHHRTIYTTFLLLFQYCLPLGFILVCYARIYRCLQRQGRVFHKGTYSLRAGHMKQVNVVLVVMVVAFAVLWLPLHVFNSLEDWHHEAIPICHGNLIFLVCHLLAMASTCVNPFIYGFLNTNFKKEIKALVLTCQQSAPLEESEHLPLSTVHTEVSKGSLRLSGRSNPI
# ASSAY_COMMENT: 125I-PP displacement
OBSERVABLE: IC50 (nM)

BINDER: GAPLEPEYPGDNATPEQLARYAAALRRYINKLTRPRY [4060356]
ENDPOINT_UNIT: nM
IC50: 0.091
//
BINDER: PAPLEPTYPGDNATPEQLAKYYSELRRYINKLTRPRF [4060284]
ENDPOINT_UNIT: nM
IC50: 0.055
//
BINDER: GAPLEPVYPGDNATPEQKAKYAAELRRYIDHLTRPRY [4061086]
ENDPOINT_UNIT: nM
IC50: 0.213

(A) YAPLEPTYPGDNATPEQKAKYAAELRRYIDKLTRPRY [4061083]
(B) PAPLEPTYPGDNATPEQKAKYAAELRRYIDKLTRPRY [4061081]
Query: Identify the item whose IC50 is the smaller number: A or B Response format: the label of the selected entry.
Result: A
